This collection of values is drawn from paper PMC7504466.

Tested on: human CRC cell lines (T84, SW620, LoVo, HT29, NCI-H508, RKO, LS411N)
Assay: MTT cytotoxicity assay, panel of KRAS- and BRAF-mutated CRC cell lines
Type: cell-based
Conditions: several CRC cell lines, read-out: IC50 against several CRC cell lines
Protocol: The in-vitro cytotoxic activity of the synthesized compounds on seven human CRC cell lines including KRAS (T84, SW620, LoVo) and BRAF (HT29, NCI-H508, RKO and LS411N) mutated cells were determined by MTT assay as previously described. […] LoVo cells (1.5–5 × 10^3 cells/well) were seeded into a 96 well plate and incubated at 37 °C and 5% CO2 atmosphere for 24 h. […] The absorbance was recorded with a microplate reader at 570 nm. […]
Metric Name: IC50

Incoming: I would be grateful if you could share the reported IC50 for `O=C1C(=Cc2ccc(F)c(F)c2)CSCC1=Cc1ccc(F)c(F)c1` .
Outgoing: 2.4 to 6.2 µM
